# testSystem: human renin (Homo sapiens, UniProt P00797)
# Sequence (P00797 67-406): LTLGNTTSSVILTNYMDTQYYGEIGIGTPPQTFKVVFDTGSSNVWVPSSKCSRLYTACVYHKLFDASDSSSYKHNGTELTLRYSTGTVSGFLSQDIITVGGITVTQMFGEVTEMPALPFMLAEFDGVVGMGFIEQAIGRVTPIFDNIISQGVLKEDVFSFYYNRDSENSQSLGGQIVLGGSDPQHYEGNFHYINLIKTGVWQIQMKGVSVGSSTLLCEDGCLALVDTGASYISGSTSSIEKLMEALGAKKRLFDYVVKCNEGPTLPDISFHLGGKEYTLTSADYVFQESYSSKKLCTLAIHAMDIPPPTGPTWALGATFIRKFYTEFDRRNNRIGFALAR
# experimentSummary: Inhibition of human renin activity (procedure of Kokubu et al.)
# Type: biochemical
# conditionDescription: sheep angiotensinogen, pH 7.3, 10 minutes at 37° C.; mean of 3 or 4 experiments
quantity: Inhibitory Activity (%) Against Human Renin

CC[C@H](C)CNC(=O)[C@@H](C[C@H](O)[C@H](CC1CCCCC1)NC(=O)[C@H](Cc1cscn1)NC(=O)[C@H](Cc1ccccc1)NC(=O)CN1CCOCC1)C(C)(C)O
96.7
CCC(C)CNC(=O)[C@@H](C[C@H](O)[C@H](CC(C)C)NC(=O)[C@H](Cc1cscn1)NC(=O)[C@H](Cc1cccc2ccccc12)NC(=O)OC(C)(C)C)C(C)(C)O (mixture of isomers)
98.2
CC[C@H](C)CNC(=O)[C@@H](C[C@H](O)[C@H](CC1CCCCC1)NC(=O)[C@H](Cc1cscn1)NC(=O)[C@H](Cc1cccc2ccccc12)NC(=O)CN1CCOCC1)C(C)(C)O
96.3
CC[C@H](C)CNC(=O)[C@@H](C[C@H](O)[C@H](CC1CCCCC1)NC(=O)[C@H](Cc1cscn1)NC(=O)[C@@H](CC(=O)N1CCOCC1)Cc1cccc2ccccc12)C(C)(C)O
96.8
CNC(=O)[C@@H](C[C@H](O)[C@H](CC1CCCCC1)NC(=O)[C@H](Cc1cscn1)NC(=O)[C@@H](CC(=O)N1CCOCC1)Cc1ccccc1)C(C)(C)O
90.9
CCC(C)CNC(=O)[C@@H](C[C@H](O)[C@H](CC(C)C)NC(=O)[C@H](Cc1cscn1)NC(=O)[C@@H](CC(=O)N(C)C1CCCCC1)Cc1cccc2ccccc12)C(C)(C)O (mixture of isomers)
97.4
CC[C@H](C)CNC(=O)[C@@H](C[C@H](O)[C@H](CC1CCCCC1)NC(=O)[C@H](Cc1cscn1)NC(=O)[C@@H](CC(=O)N1CCOCC1)Cc1ccccc1)C(C)(C)O
92.2
